Test: Cytotoxicity determination (MTT), B16V cells
Type: cell-based
Details: mouse, B16V melanoma cells, 48 h incubation
experimental endpoint: IC50 at 48 h (µM)
The figure you give is taken to be in µM; do not add the unit.

INPUT: Return the recorded IC50 at 48 h value; entry: CC(c1ccccc1)c1ccc(O)cc1O (centres unmarked) [Styrylresorcinol (4), 4-(1-phenylethyl)-1,3-dihydroxybenzene]
OUTPUT: 140

Origin of measurements: patent US9655824B2
